The measurements presented in this section are drawn from paper PMC7939381.

- target-or-system: T1, 14-3-3σ, full length, N-terminally His6-tagged (human, UniProt P31947 1-248)
- T1 chain: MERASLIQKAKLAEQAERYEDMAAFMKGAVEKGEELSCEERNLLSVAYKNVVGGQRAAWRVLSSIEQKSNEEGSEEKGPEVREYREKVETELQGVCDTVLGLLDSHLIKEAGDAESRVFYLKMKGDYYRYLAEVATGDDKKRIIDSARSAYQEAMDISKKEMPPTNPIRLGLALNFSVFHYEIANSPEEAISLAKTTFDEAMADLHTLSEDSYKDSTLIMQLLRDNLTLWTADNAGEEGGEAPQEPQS
- procedure-text: FP
Primed or numbered codes have the meaning given here. Where no end group is shown, it is not given here. [ ]: non-standard residue; d: D form. The star is where a group is joined. PEG2′ = short PEG linker placed between the N-terminal FITC label and the peptide; FITC = O=C1OC2(c3ccc(O)cc3Oc3cc(O)ccc32)c2ccc(NC(=S)*)cc21; pS = N[C@@H](COP(=O)(O)O)C(=O)O
readout-name: Kd (µM)
Kindly provide the numeric value in µM only, without the unit symbol.

**Q:** For the binder {FITC-PEG2′}-NKNAN[pS]SPV [FITC-labeled peptide 1, APN 38–46 pSer43] , what Kd is on record?
**A:** 3.9
